assay: physchem; assay type: physicochemical; conditions: water
value type: solubility thermodynamic at 72 h (µg/mL)

mol smiles | value type | value unit | test value
Cc1ncc([N+](=O)[O-])n1CCO | solubility thermodynamic at 72 h | µg/mL | 8200
